target of assay: TSHR (Homo sapiens, UniProt P16473)
Construct: purchased Promega (in-house HiBiT-GPCR construct library, NanoBRET)
Sequence (P16473 21-764): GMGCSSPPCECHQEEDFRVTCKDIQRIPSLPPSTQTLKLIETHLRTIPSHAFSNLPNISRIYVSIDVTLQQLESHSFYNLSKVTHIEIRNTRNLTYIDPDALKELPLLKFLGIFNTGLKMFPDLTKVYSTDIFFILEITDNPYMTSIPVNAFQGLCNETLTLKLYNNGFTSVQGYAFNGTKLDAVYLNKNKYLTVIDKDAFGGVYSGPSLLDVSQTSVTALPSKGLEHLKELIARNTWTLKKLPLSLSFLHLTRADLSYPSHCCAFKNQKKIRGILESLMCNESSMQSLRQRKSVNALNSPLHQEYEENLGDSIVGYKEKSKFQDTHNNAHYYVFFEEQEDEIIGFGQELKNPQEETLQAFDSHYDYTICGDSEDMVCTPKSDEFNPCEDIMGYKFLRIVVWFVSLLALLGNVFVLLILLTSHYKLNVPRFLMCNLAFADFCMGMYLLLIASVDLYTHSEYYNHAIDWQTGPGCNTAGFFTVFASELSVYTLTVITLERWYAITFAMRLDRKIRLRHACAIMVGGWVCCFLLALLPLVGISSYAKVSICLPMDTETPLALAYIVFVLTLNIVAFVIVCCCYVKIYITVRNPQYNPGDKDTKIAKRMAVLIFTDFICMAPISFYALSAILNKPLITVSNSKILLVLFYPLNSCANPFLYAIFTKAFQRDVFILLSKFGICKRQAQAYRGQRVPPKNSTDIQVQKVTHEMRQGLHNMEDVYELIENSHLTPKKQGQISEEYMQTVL
experimental protocol: NanoBRET screen HiBiT-TSHR in HEK293
Assay type: binding
reported conditions: TSHR; tracer 1μM
parameter measured: NanoBRET Fold Response
Give bare numbers.

Hey, quick one: what's NanoBRET Fold Response for each of these?
1. N#CN=C(NCCCOc1cccc(CN2CCCCC2)c1)NCCNC(=O)CCOCCOCCOCCOCCNC(=O)CCc1ccc2n1[B-](F)(F)[N+]1=C(c3ccc[nH]3)C=CC1=C2
2. O=C(CCOCCOCCOCCOCCNC(=O)CCc1ccc2n1[B-](F)(F)[N+]1=C(c3ccc[nH]3)C=CC1=C2)NCCCN1CCN(C2=Nc3ccccc3Oc3ccc(Cl)cc32)CC1
3. CC(C)N(CC[C@H](c1ccccc1)c1cc(CCNC(=O)CCOCCOCCOCCOCCNC(=O)CCc2ccc3n2[B-](F)(F)[N+]2=C(c4ccc[nH]4)C=CC2=C3)ccc1O)C(C)C
4. COc1ccccc1N1CCN(CCCCN2C(=O)c3ccc(CNC(=O)CCOCCOCCOCCOCCNC(=O)CCc4ccc5n4[B-](F)(F)[N+]4=C(c6ccc[nH]6)C=CC4=C5)cc3C2=O)CC1
5. CCCn1c(=O)c2[nH]c(-c3ccc(OCC(=O)NCCNC(=O)CCOCCNC(=O)c4ccc(CNC(=O)CCc5ccc6n5[B-](F)(F)[N+]5=C(c7ccc[nH]7)C=CC5=C6)cc4)cc3)nc2n(CCC)c1=O

Response given:
1. 1.01
2. 1.07
3. 1.20
4. 1.06
5. 1.03

---

target of assay: NPFFR1 (Homo sapiens)
Construct: purchased Promega (in-house HiBiT-GPCR construct library, NanoBRET)
Sequence (Q9GZQ6 whole entry): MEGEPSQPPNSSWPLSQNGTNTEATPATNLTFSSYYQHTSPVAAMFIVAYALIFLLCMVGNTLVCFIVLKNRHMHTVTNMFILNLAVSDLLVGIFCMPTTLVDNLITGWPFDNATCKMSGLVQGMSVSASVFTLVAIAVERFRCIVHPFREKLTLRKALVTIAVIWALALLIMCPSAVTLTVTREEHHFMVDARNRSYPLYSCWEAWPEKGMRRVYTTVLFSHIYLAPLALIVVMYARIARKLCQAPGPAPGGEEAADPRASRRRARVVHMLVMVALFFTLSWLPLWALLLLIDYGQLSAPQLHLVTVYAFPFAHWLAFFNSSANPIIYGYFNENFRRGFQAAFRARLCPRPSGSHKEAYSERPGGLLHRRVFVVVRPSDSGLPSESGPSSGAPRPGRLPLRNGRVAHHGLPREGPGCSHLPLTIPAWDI
experimental protocol: NanoBRET screen HiBiT-NPFFR1 in HEK293
Assay type: binding
reported conditions: NPFFR1; tracer 0.1μM
The threshold is inclusive: NanoBRET Fold Response of exactly 1 counts as true (1); values below receive false (0).

Reference set (7 entries):
| molecule | target of assay | class assignment |
| --- | --- | --- |
| CC(C)N(CC[C@H](c1ccccc1)c1cc(CCNC(=O)CCOCCOCCOCCOCCNC(=O)CCc2ccc3n2[B-](F)(F)[N+]2=C(c4ccc[nH]4)C=CC2=C3)ccc1O)C(C)C | NPFFR1 (Homo sapiens) | true (1) |
| O=C(CCc1ccc2n1[B-](F)(F)[N+]1=C(c3ccc[nH]3)C=CC1=C2)NCc1ccc(C(=O)NCCOCCC(=O)N[C@@H]2CC[C@@]3(O)[C@H]4Cc5ccc(O)c6c5[C@@]3(CCN4CC3CC3)[C@H]2O6)cc1 [Naltrexone-3-NB590] | NPFFR1 (Homo sapiens) | false (0) |
| Cc1cc2c(s1)Nc1ccccc1N=C2N1CCN(CCCNC(=O)CCOCCOCCOCCOCCNC(=O)CCc2ccc3n2[B-](F)(F)[N+]2=C(c4ccc[nH]4)C=CC2=C3)CC1 | NPFFR1 (Homo sapiens) | false (0) |
| CC(C)N(CC[C@H](c1ccccc1)c1cc(CCNC(=O)c2ccc(CNC(=O)CCc3ccc4n3[B-](F)(F)[N+]3=C(c5ccc[nH]5)C=CC3=C4)cc2)ccc1O)C(C)C | NPFFR1 (Homo sapiens) | false (0) |
| COc1ccccc1N1CCN(CCCCN2C(=O)c3ccc(CNC(=O)CCOCCNC(=O)c4ccc(CNC(=O)CCc5ccc6n5[B-](F)(F)[N+]5=C(c7ccc[nH]7)C=CC5=C6)cc4)cc3C2=O)CC1 | NPFFR1 (Homo sapiens) | true (1) |
| N#CN=C(NCCCOc1cccc(CN2CCCCC2)c1)NCCNC(=O)CCOCCOCCOCCOCCNC(=O)CCc1ccc2n1[B-](F)(F)[N+]1=C(c3ccc[nH]3)C=CC1=C2 | NPFFR1 (Homo sapiens) | false (0) |
| COc1ccccc1N1CCN(CCCCN2C(=O)c3ccc(CNC(=O)CCOCCOCCOCCOCCNC(=O)CCc4ccc5n4[B-](F)(F)[N+]4=C(c6ccc[nH]6)C=CC4=C5)cc3C2=O)CC1 | NPFFR1 (Homo sapiens) | false (0) |

Now look at this entry.
Challenge: Dear colleague, could you confirm whether Cc1nc2n(c(=O)c1CCN1CCC(c3noc4cc(F)ccc34)CC1)CCCC2OC(=O)NCCOCCOCCOCCOCCNC(=O)CCc1ccc2n1[B-](F)(F)[N+]1=C(c3ccc[nH]3)C=CC1=C2 (centres unmarked) has NanoBRET Fold Response at or above 1?
Response given: false (0)

---

target of assay: OPRK1 (Homo sapiens, UniProt P41145)
Construct: purchased Promega (in-house HiBiT-GPCR construct library, NanoBRET)
Sequence (P41145 whole entry): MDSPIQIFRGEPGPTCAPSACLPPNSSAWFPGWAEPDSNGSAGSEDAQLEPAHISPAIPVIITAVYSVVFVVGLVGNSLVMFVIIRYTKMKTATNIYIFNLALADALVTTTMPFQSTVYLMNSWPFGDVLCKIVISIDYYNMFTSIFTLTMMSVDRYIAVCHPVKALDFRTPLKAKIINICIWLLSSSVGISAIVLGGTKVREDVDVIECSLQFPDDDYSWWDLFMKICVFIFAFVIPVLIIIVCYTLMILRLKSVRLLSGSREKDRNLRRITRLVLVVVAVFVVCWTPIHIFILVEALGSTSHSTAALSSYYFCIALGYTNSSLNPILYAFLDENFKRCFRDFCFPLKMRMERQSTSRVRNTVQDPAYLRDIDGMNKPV
experimental protocol: NanoBRET screen HiBiT-OPRK1 in HEK293
Assay type: binding
reported conditions: OPRK1; tracer 0.1μM
Kindly supply the reported NanoBRET Fold Response values for the records listed here.
Answers are plain numbers.

| compound | number |
| --- | --- |
| O=C(CCc1ccc2n1[B-](F)(F)[N+]1=C(c3ccc[nH]3)C=CC1=C2)NCc1ccc(C(=O)NCCOCCC(=O)N[C@@H]2CC[C@@]3(O)[C@H]4Cc5ccc(O)c6c5[C@@]3(CCN4CC3CC3)[C@H]2O6)cc1 [Naltrexone-3-NB590] | 2.19 |
| CCCn1c(=O)c2[nH]c(-c3ccc(OCC(=O)NCCNC(=O)CCOCCNC(=O)c4ccc(CNC(=O)CCc5ccc6n5[B-](F)(F)[N+]5=C(c7ccc[nH]7)C=CC5=C6)cc4)cc3)nc2n(CCC)c1=O | 0.97 |

For the next question, use this compound.
Entry CC(C)N(CC[C@H](c1ccccc1)c1cc(CCNC(=O)CCOCCOCCOCCOCCNC(=O)CCc2ccc3n2[B-](F)(F)[N+]2=C(c4ccc[nH]4)C=CC2=C3)ccc1O)C(C)C : NanoBRET Fold Response on OPRK1 (Homo sapiens, UniProt P41145) = 1.12

---

Give NanoBRET Fold Response for every item shown.
target of assay: ADRA1D (Homo sapiens, UniProt P25100)
Construct: purchased Promega (in-house HiBiT-GPCR construct library, NanoBRET)
Sequence (P25100 whole entry): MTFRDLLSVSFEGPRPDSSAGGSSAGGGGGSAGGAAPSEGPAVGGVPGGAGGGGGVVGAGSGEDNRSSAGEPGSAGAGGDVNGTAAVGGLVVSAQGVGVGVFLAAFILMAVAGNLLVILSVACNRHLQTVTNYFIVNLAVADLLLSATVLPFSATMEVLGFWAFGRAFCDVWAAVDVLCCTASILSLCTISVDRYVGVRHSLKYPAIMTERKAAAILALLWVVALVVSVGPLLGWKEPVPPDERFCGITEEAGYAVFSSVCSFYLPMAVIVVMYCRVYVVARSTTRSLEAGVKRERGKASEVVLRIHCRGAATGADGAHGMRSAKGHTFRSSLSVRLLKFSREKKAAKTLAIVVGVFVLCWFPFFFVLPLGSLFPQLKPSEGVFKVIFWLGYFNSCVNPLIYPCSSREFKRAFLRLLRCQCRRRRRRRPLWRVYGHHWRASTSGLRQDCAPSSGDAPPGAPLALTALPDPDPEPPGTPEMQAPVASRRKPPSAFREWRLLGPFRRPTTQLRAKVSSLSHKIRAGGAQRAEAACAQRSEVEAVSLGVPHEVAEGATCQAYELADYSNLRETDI
experimental protocol: NanoBRET screen HiBiT-ADRA1D in HEK293
Type: binding
reported conditions: ADRA1D; tracer 1μM

Hi there! I need NanoBRET Fold Response for each item below, if you can.
1. O=C(CCc1ccc2n1[B-](F)(F)[N+]1=C(c3ccc[nH]3)C=CC1=C2)NCCOCCOCCNC(=O)OCCOCCN1CCN(C2=Nc3ccccc3Sc3ccccc32)CC1
2. CC(C)N(CC[C@H](c1ccccc1)c1cc(CCNC(=O)CCOCCOCCOCCOCCNC(=O)CCc2ccc3n2[B-](F)(F)[N+]2=C(c4ccc[nH]4)C=CC2=C3)ccc1O)C(C)C
3. COc1ccccc1N1CCN(CCCCN2C(=O)c3ccc(CNC(=O)CCOCCOCCOCCOCCNC(=O)CCc4ccc5n4[B-](F)(F)[N+]4=C(c6ccc[nH]6)C=CC4=C5)cc3C2=O)CC1
4. Cc1cc2c(s1)Nc1ccccc1N=C2N1CCN(CCCNC(=O)CCOCCOCCOCCOCCNC(=O)CCc2ccc3n2[B-](F)(F)[N+]2=C(c4ccc[nH]4)C=CC2=C3)CC1

Response given:
1.06
1.00
1.13
1.06

Hi! Can you tell me NanoBRET Fold Response for each of these molecules?
1. O=C(CCOCCOCCOCCOCCNC(=O)CCc1ccc2n1[B-](F)(F)[N+]1=C(c3ccc[nH]3)C=CC1=C2)NCCCN1CCN(C2=Nc3ccccc3Oc3ccc(Cl)cc32)CC1
2. COc1ccccc1N1CCN(CCCCN2C(=O)c3ccc(CNC(=O)CCOCCNC(=O)c4ccc(CNC(=O)CCc5ccc6n5[B-](F)(F)[N+]5=C(c7ccc[nH]7)C=CC5=C6)cc4)cc3C2=O)CC1
3. CCCn1c(=O)c2[nH]c(-c3ccc(OCC(=O)NCCNC(=O)CCOCCNC(=O)c4ccc(CNC(=O)CCc5ccc6n5[B-](F)(F)[N+]5=C(c7ccc[nH]7)C=CC5=C6)cc4)cc3)nc2n(CCC)c1=O

Response given:
1.24
1.16
1.10

---

target of assay: CX3CR1 (Homo sapiens)
Construct: purchased Promega (in-house HiBiT-GPCR construct library, NanoBRET)
Sequence (P49238 whole entry): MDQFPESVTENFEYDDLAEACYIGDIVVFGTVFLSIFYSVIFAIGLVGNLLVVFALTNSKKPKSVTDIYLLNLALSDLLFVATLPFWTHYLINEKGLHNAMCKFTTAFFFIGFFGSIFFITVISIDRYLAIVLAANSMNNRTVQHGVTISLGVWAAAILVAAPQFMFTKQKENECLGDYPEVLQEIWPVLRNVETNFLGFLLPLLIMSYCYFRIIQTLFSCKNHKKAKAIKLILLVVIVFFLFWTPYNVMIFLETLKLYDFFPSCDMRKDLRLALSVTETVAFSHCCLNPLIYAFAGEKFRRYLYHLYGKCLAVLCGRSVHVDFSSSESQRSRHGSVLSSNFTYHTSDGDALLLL
experimental protocol: NanoBRET screen HiBiT-CX3CR1 in HEK293
Type: binding
reported conditions: CX3CR1; tracer 0.1μM
Method: Each tracer candidate was screened across the entire library of HiBiT-GPCR constructs using NanoBRET as the detection modality. As depicted in Figure 4A, the specificity of interactions was evaluated through decrease in BRET due to competitive displacement of a bound tracer by excess parental compound. Each tracer was analyzed for binding to each HiBiT-GPCR fusion in the absence and in the presence of competing parental compound. […]
parameter measured: NanoBRET Fold Response
Numbers only.

Examples from the recorded data:
| molecule | target of assay | NanoBRET Fold Response |
| --- | --- | --- |
| Cc1nc2n(c(=O)c1CCN1CCC(c3noc4cc(F)ccc34)CC1)CCCC2OC(=O)NCCOCCOCCOCCOCCNC(=O)CCc1ccc2n1[B-](F)(F)[N+]1=C(c3ccc[nH]3)C=CC1=C2 (stereo not drawn) | CX3CR1 (Homo sapiens) | 1.06 |
| O=C(CCc1ccc2n1[B-](F)(F)[N+]1=C(c3ccc[nH]3)C=CC1=C2)NCCOCCOCCNC(=O)OCCOCCN1CCN(C2=Nc3ccccc3Sc3ccccc32)CC1 | CX3CR1 (Homo sapiens) | 0.90 |
| CC(C)N(CC[C@H](c1ccccc1)c1cc(CCNC(=O)CCOCCOCCOCCOCCNC(=O)CCc2ccc3n2[B-](F)(F)[N+]2=C(c4ccc[nH]4)C=CC2=C3)ccc1O)C(C)C | CX3CR1 (Homo sapiens) | 1.32 |
| COc1ccccc1N1CCN(CCCCN2C(=O)c3ccc(CNC(=O)CCOCCNC(=O)c4ccc(CNC(=O)CCc5ccc6n5[B-](F)(F)[N+]5=C(c7ccc[nH]7)C=CC5=C6)cc4)cc3C2=O)CC1 | CX3CR1 (Homo sapiens) | 0.90 |
| N#CN=C(NCCCOc1cccc(CN2CCCCC2)c1)NCCNC(=O)CCOCCOCCOCCOCCNC(=O)CCc1ccc2n1[B-](F)(F)[N+]1=C(c3ccc[nH]3)C=CC1=C2 | CX3CR1 (Homo sapiens) | 1.00 |

Consider now this further molecule.
# NanoBRET Fold Response measured on CX3CR1 (Homo sapiens) for item O=C(CCOCCOCCOCCOCCNC(=O)CCc1ccc2n1[B-](F)(F)[N+]1=C(c3ccc[nH]3)C=CC1=C2)NCCCN1CCN(C2=Nc3ccccc3Oc3ccc(Cl)cc32)CC1 = 1.05
